Source listed as PubChem BioAssay AID1210.

Target: Estrogen receptor beta (Homo sapiens) (UniProt Q92731)
Sequence (Q92731 whole entry, looked up): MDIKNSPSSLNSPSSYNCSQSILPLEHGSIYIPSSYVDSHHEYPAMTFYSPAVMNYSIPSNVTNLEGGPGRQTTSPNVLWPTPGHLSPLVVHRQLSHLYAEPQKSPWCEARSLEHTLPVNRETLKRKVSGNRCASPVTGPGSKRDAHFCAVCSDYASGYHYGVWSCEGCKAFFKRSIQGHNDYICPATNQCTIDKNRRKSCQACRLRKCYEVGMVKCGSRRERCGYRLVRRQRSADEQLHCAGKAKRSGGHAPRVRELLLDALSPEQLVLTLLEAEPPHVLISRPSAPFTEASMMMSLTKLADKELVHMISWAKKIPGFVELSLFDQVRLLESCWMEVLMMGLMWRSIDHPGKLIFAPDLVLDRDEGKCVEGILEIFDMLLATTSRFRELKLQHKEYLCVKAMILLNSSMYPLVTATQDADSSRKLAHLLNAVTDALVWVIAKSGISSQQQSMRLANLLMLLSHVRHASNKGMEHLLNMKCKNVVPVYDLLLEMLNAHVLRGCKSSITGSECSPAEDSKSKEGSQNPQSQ
Assay: displacement of fluorescent estrogen from ERbeta – cell-based, Cos7 ERbeta-GFP, flow cytometry, primary screen (AID 1210)
Conditions: fluorescent estrogen binding, at 10 µM
Activity calls are given as the source filed them.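 Rule for the calls: active = blocks over 70% of labeled estradiol binding at 10 µM, or over a set limit at 100 nM; inactive = the rest.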
Outcome codes: active, inactive

COMPOUND | MEASURED TARGET | CATEGORY
CCc1ccc(Nc2nc(N)nc(CSc3nnnn3-c3ccccc3)n2)cc1 | Estrogen receptor beta (Homo sapiens) (UniProt Q92731) | inactive
CCCOc1cc(OCCC)c2c3c(c(=O)oc2c1)CCCC3 | Estrogen receptor beta (Homo sapiens) (UniProt Q92731) | inactive
Cc1cc(C)c2c(c1)[C@@H]1C=CC[C@@H]1[C@H](c1ccc(S(=O)(=O)N3CCOCC3)cc1)N2 | Estrogen receptor beta (Homo sapiens) (UniProt Q92731) | inactive
Cc1nc2sccn2c1-c1nc(-c2cc3ccccc3o2)cs1 | Estrogen receptor beta (Homo sapiens) (UniProt Q92731) | inactive
COc1cccc2cc3c(=O)n(-c4ccccc4)nc-3oc12 | Estrogen receptor beta (Homo sapiens) (UniProt Q92731) | inactive
O=C(Nc1ccccc1N1CCOCC1)c1cc(-c2ccco2)nc2ccccc12 | Estrogen receptor beta (Homo sapiens) (UniProt Q92731) | inactive
COc1ccc(-n2cc3c(c(C#N)c2=N)CC(C)(C)CC3=O)cc1 | Estrogen receptor beta (Homo sapiens) (UniProt Q92731) | inactive
COc1cccc(-c2[nH]nc3c2C(c2ccoc2)C(C#N)=C(N)O3)c1 (configuration not stated) | Estrogen receptor beta (Homo sapiens) (UniProt Q92731) | inactive
Cc1ccccc1OCC1Cc2c(nc(N)c(C#N)c2N)O1 (configuration not stated) | Estrogen receptor beta (Homo sapiens) (UniProt Q92731) | inactive
COc1cc(NC(=O)COc2ccc(-n3cnnn3)cc2)c(OC)cc1Cl | Estrogen receptor beta (Homo sapiens) (UniProt Q92731) | inactive
CSc1nc2c(c(=O)[nH]1)C(c1cccs1)C1=C(CCCC1=O)N2 (configuration not stated) | Estrogen receptor beta (Homo sapiens) (UniProt Q92731) | active
COc1ccc(/C=N/NC(=O)c2nc(-c3ccccc3)cc(-c3ccccc3)n2)cc1O | Estrogen receptor beta (Homo sapiens) (UniProt Q92731) | active
COC(=O)c1ccccc1NC(=O)c1noc2c1CCC2 | Estrogen receptor beta (Homo sapiens) (UniProt Q92731) | inactive
CCOc1ccc(NS(=O)(=O)c2ccc3c(c2)[C@H]2C=CC[C@H]2[C@@H](c2ccc(C(=O)O)cc2)N3)cc1 | Estrogen receptor beta (Homo sapiens) (UniProt Q92731) | inactive
Cc1csc(C(C#N)C(=O)c2ccncc2)n1 (configuration not stated) | Estrogen receptor beta (Homo sapiens) (UniProt Q92731) | inactive
CCOc1ccc(Nc2oc(-c3ccccc3Cl)nc2C#N)cc1 | Estrogen receptor beta (Homo sapiens) (UniProt Q92731) | inactive
O=C1Nc2ccccc2SC(c2ccccc2)C1O (configuration not stated) | Estrogen receptor beta (Homo sapiens) (UniProt Q92731) | inactive
C=CCn1c(COc2ccccc2F)nnc1SCC(=O)NC(=O)NCc1ccco1 | Estrogen receptor beta (Homo sapiens) (UniProt Q92731) | inactive
Nc1ccc(/C=C/C(=O)c2ccco2)cc1 | Estrogen receptor beta (Homo sapiens) (UniProt Q92731) | inactive
CN1C(=O)CSc2ccc(NC(=O)N3CCC(N4CCCCC4)CC3)cc21 | Estrogen receptor beta (Homo sapiens) (UniProt Q92731) | inactive
Cc1ccc(C(=O)ONc2ccc(N=NC(=O)c3ccccc3O)cc2)cc1 | Estrogen receptor beta (Homo sapiens) (UniProt Q92731) | inactive
CC(C)(C)NC(=O)c1ccc2c(c1)C1C3CCC(C3)C1C(c1ccccc1)N2 (configuration not stated) | Estrogen receptor beta (Homo sapiens) (UniProt Q92731) | inactive
